System: U2OS
TEST_NAME: cell viability relative to DMSO; higher = less toxic
CONDITION_DESCRIPTION: 72 h; 1 nM
OUTCOME_MEASURE: cell viability (%)
Write the value in % as a bare number.

                                   compound  outcome_measure  measured
0  O=C1CCC[C@@H]2[C@H]3C[C@@H](CN12)[C@@H]1CCCCN1C3 [lupanine]   cell viability       101

If you can, please state the reported cell viability value of CN(C)Cc1ccc(S(=O)(=O)n2ccc(/C=C/C(=O)NO)c2)cc1 [resminostat] .
95.2

If you can, please state the reported cell viability value of O=C(OCCN1CCOCC1)C1(c2ccccc2)CCCCC1 [PRE-084] .
99.3

If you can, please state the reported cell viability value of CC(=O)c1ccc2c(c1)[C@@H]1C=CC[C@@H]1[C@H](c1cc3c(cc1Br)OCO3)N2 [G-1] .
100

If you can, please state the reported cell viability value of CCCNCC(O)COc1ccccc1C(=O)CCc1ccccc1 (centres undefined) [propafenone] .
99.1

If you can, please state the reported cell viability value of C#CCN1C(C)=C(C(=O)OC)C(c2cccc([N+](=O)[O-])c2)C(C(=O)OCC)=C1C (centres undefined) [MRS-1845] .
107
